# System: KM12 colon
# ASSAY NAME: NCI-60 one-dose screen, 48 h (100 = growth as untreated, 0 = no growth, -100 = all killed)
# PROTOCOL CONDITIONS: 10 µM unless noted
About 83,000 compounds went through this panel and 20% of them were active in at least one assay; those are over-represented in the sample as a whole.
Record yes whenever growth is at 40% or higher; record no when lower.

Kindly determine if growth recorded for CCn1c(SCC(=O)c2ccc(Br)cc2)nnc1-c1cc2c([nH]c3ccccc32)c(-c2cccc(O)c2)n1 is above or exactly 40%.
yes

Kindly determine if growth recorded for C=CCOc1ccc(/C(Cl)=N/N=C(\Cl)c2cc(OC)c(OC)c(OC)c2)cc1 is above or exactly 40%.
yes

Kindly determine if growth recorded for C=C1C(=O)O[C@H]2[C@H]1CC/C(COC(=O)CCCC(=O)OC/C1=C/CC[C@@]3(C)O[C@H]3[C@H]3OC(=O)C(=C)[C@@H]3CC1)=C\CC[C@@]1(C)O[C@@H]21 is above or exactly 40%.
no

Kindly determine if growth recorded for Cc1cccc(Cc2cnc(NC(=O)CCc3ccc(C)o3)s2)c1 is above or exactly 40%.
no

Kindly determine if growth recorded for CC(C)(C)C(=O)/C=c1/[nH]c(=O)/c(=C/c2ccccc2O)s1 is above or exactly 40%.
no

Kindly determine if growth recorded for Cc1c(F)cccc1NC(=O)c1sc2nc3c(cc2c1N)CCCCC3 is above or exactly 40%.
no

Kindly determine if growth recorded for O=C1COc2ccccc2C(=O)N1CCCCN1CCCCC1 is above or exactly 40%.
yes

Kindly determine if growth recorded for COc1cc(/C=C\c2cc(/C=C\c3ccc(O)c(OC)c3)n(C(=O)CNc3ccccc3OC)n2)ccc1O is above or exactly 40%.
yes

Kindly determine if growth recorded for O=C(CSc1nnc(-c2ccc(Cl)cc2)o1)Nc1ccc(C(=O)/C=C/c2ccccc2)cc1 is above or exactly 40%.
yes

Kindly determine if growth recorded for COc1ccc2c(-c3ccc(F)cc3)c(C#N)c(=NC(C)=O)oc2c1 is above or exactly 40%.
no

Kindly determine if growth recorded for CCCCN(CCCC)c1ccc(C(=N)c2ccc(N(C)C)cc2)cc1 is above or exactly 40%.
no

Kindly determine if growth recorded for COc1cc(NC(=O)C#Cc2ccccc2)c(OC)cc1Cl is above or exactly 40%.
yes

Kindly determine if growth recorded for COc1ccc(/C=C/C(=O)c2ccc(-n3cc(CN4CCN(c5cc6c(cc5F)c(=O)c(C(=O)O)cn6C5CC5)CC4)nn3)cc2)cc1OC is above or exactly 40%.
no

Kindly determine if growth recorded for COc1ccc(OCC(O)CN2CCN(c3ccc(Cl)cc3)CC2)cc1 (stereo not drawn) is above or exactly 40%.
yes

Kindly determine if growth recorded for C=CC(C)(O)CCC1C(=C)CCC2C(C)(C)CCCC12C (stereo not drawn) is above or exactly 40%.
yes

Kindly determine if growth recorded for COc1ccc(C(=O)NC(=O)Nc2ccc3c(c2)NC(=O)/C3=C\c2[nH]c(C)c(C(=O)O)c2C)c(F)c1 is above or exactly 40%.
no

Kindly determine if growth recorded for CC(Cl)(CCl)CS(=O)(=O)c1ccc(Cl)cc1 (stereo not drawn) is above or exactly 40%.
yes

Kindly determine if growth recorded for COc1ccc(OC)c(NCC(=O)n2nc(/C=C\c3ccc(O)c(OC)c3)cc2/C=C\c2ccc(O)c(OC)c2)c1 is above or exactly 40%.
no

Kindly determine if growth recorded for Nc1nc2ccc(CNc3ccc(C(=O)NC(CC(=O)O)C(=O)O)cc3)cc2c(=O)[nH]1 (stereo not drawn) is above or exactly 40%.
no

Kindly determine if growth recorded for COc1ccc(-c2nn(-c3ccc(NC(=O)c4cc(C(F)(F)F)cc(C(F)(F)F)c4)cc3)cc2-c2ccncc2)cc1Cl is above or exactly 40%.
yes

Kindly determine if growth recorded for NC(CCCC(N)C(=O)c1ccccc1)C(=O)O (stereo not drawn) is above or exactly 40%.
yes

Kindly determine if growth recorded for CC(C)C1(C(C)C)NC(=O)NC1=O is above or exactly 40%.
yes

Kindly determine if growth recorded for O=C(N/N=C/c1ccccc1O)c1ccccc1O is above or exactly 40%.
no

Kindly determine if growth recorded for Cc1cc(Nc2ccc(Cl)c(Cl)c2)nc(N)n1 is above or exactly 40%.
yes

Kindly determine if growth recorded for O=C(Nc1ccc(-n2cc(-c3ccncc3)c(-c3ccc(O)c(Cl)c3)n2)cc1)c1cc(Cl)cc(Cl)c1 is above or exactly 40%.
no

Kindly determine if growth recorded for COc1ccccc1S(=O)(=O)Nc1ccc2c3c(cc(-c4cnn(C)c4)nc13)C(=O)N2C is above or exactly 40%.
no

Kindly determine if growth recorded for CCCCOc1c(N)cccc1C(=O)OCCN(CC)CC is above or exactly 40%.
yes

Kindly determine if growth recorded for O=C(NCCNc1nccc(-c2c(-c3cccc(O)c3)nc3sccn23)n1)c1ccccc1O is above or exactly 40%.
yes

Kindly determine if growth recorded for CC(C)C(=O)Nc1nc2c(s1)CCCc1ccn(S(=O)(=O)c3ccccc3)c1-2 is above or exactly 40%.
yes

Kindly determine if growth recorded for O=C(Nc1cccc(-n2ccc3c(NC(=O)c4ccccc4)nccc32)c1)Nc1ccc(Cl)c(C(F)(F)F)c1 is above or exactly 40%.
no

Kindly determine if growth recorded for FC(F)(F)c1cn(CCN2CCOCC2)c2ncnc(Cl)c12 is above or exactly 40%.
yes

Kindly determine if growth recorded for COc1ccc(/C=C/C(=O)/C=C(/C=C/c2ccc(OC)c(OC)c2OC)OB(F)F)c(OC)c1OC is above or exactly 40%.
no

Kindly determine if growth recorded for C=C1C(=O)O[C@H]2[C@H]1CC/C(C(=O)NCCOCCOCC(=O)Nc1ccc(OC)c(C(N)=O)c1O)=C\CC[C@@]1(C)O[C@@H]21 is above or exactly 40%.
yes

Kindly determine if growth recorded for O=C(Nc1ccc(Cl)c(Cl)c1)Nc1ccc(Cl)c([N+](=O)[O-])c1 is above or exactly 40%.
no

Kindly determine if growth recorded for Cc1cc(O[C@@H]2O[C@@H](C)[C@H](O)[C@@H](O)[C@H]2O)c2c3c(c(O[C@@H]4O[C@@H](C)[C@H](O)[C@@H](O)[C@H]4O)cc2c1)C(=O)c1c(O)cccc1C3=O is above or exactly 40%.
yes

Kindly determine if growth recorded for Cc1[nH]c2ccc(F)cc2c1CCNC(=O)C1CCN(C(=O)c2ccc(-c3ccccc3)cc2)CC1 is above or exactly 40%.
yes

Kindly determine if growth recorded for O=c1nc(N2CCOCC2)oc2c(-c3cccc4ccccc34)cccc12 is above or exactly 40%.
yes

###

# Test system: SK-MEL-5 melanoma
# ASSAY NAME: NCI-60 one-dose screen, 48 h (100 = growth as untreated, 0 = no growth, -100 = all killed)
# PROTOCOL CONDITIONS: 10 µM unless noted
The panel holds about 83,000 compounds, 20% with a hit somewhere; the sample as a whole holds those more often. Calls of active or inactive are those of the source. Rule for the calls: active = growth percent below 10; inactive = the rest.
For each record, write down the corresponding growth.

Entry Cc1nssc1=S needs its growth filled in; supply it.
108% (inactive)

Entry Nc1n[nH]c2cccc(C#Cc3cccc(NC(=O)c4cccc(C(F)(F)F)c4)c3)c12 needs its growth filled in; supply it.
43.9% (inactive)

Entry CC(C)C(=O)Nc1nc2c(s1)CCCc1ccn(S(=O)(=O)c3ccccc3)c1-2 needs its growth filled in; supply it.
93.3% (inactive)

Entry COc1ccccc1N1CCN(CCCOc2ccc(OCCCN3CCN(c4ccccc4OC)CC3)c(C(=O)c3cc(OC)c(OC)c(OC)c3)c2)CC1 needs its growth filled in; supply it.
87.6% (inactive)

Entry CCN(CC)C(=O)C1CCN(C(=O)c2ccccc2)CC1 needs its growth filled in; supply it.
101% (inactive)

###

For each record, write down the corresponding growth.
# System: T-47D breast
# ASSAY NAME: NCI-60 one-dose screen, 48 h (100 = growth as untreated, 0 = no growth, -100 = all killed)
# PROTOCOL CONDITIONS: 10 µM unless noted
About 83,000 compounds went through this panel and 20% of them were active in at least one assay; those are over-represented in the sample as a whole.
Expressed in %, but write only the number.

Entry C[C@H]1C=C(C[C@@H](O)CCCCCCCCCC[C@@H](O)[C@H]2CCC(=O)O2)C(=O)O1 needs its growth filled in; supply it.
92.6

Entry COC(=O)CCCNS(=O)(=O)c1cc(C(=O)Nc2ccc(NC(=O)c3cc(S(=O)(=O)NCCCC(=O)OC)c(O)c(O)c3O)cc2)c(O)c(O)c1O needs its growth filled in; supply it.
97.2

Entry C=C1C(=O)O[C@H]2[C@H]1CC/C(COC(=O)OC/C1=C/CC[C@@]3(C)O[C@H]3[C@H]3OC(=O)[C@@H](CN(C)C)[C@@H]3CC1)=C\CC[C@@]1(C)O[C@@H]21 needs its growth filled in; supply it.
-15.2

Entry CC(C)(CCN=C(N)Nc1ccccn1)c1ccc(C(F)(F)F)cc1 needs its growth filled in; supply it.
-29.7

Entry CC(=O)N[C@@H](CNC(=O)c1cc(NC(=O)c2cc(NC(=O)c3cc(NC(=O)c4nccn4C)cn3C)cn2C)cn1C)CC(=O)Nc1cn(C)c(C(=O)Nc2cc(C(=O)Nc3cc(C(=O)Nc4cc(C(=O)NCCCN(C)CCCNC(=O)c5cccc(C(=O)O)c5)n(C)c4)n(C)c3)n(C)c2)n1 needs its growth filled in; supply it.
41.5

Entry CC(=O)N1N=C(CCC(=O)c2nc3ccc([N+](=O)[O-])cc3[nH]2)OC1c1ccc(O)cc1 (stereo not given) needs its growth filled in; supply it.
85.5

Entry Nn1c(SCC(=O)Nc2cc(Cl)c(Cl)cc2Cl)nnc1-c1cc(F)c(Cl)cc1Cl needs its growth filled in; supply it.
97.5

Entry CC(C)CCC[C@@H](C)[C@H]1CC[C@H]2[C@@H]3CC=C4N(c5ccccc5)C(=O)CC[C@]4(C)[C@H]3CC[C@]12C needs its growth filled in; supply it.
95

Entry CC(C)(C)NC(C1=CC(C)(C)c2ccccc2C1=O)c1ccccc1 (stereo not given) needs its growth filled in; supply it.
-71.8

Entry COC(=O)c1ccc2c(c1)Oc1ccc(Cl)cc1-c1cc(C)nn1-2 needs its growth filled in; supply it.
71.7
